Values were extracted from patent US12655142B2.

test_system: c-Kit(V654A) (Homo sapiens, UniProt P10721, V654A)
Construct: recombinant human c-Kit, amino acids 544-end containing the V654A mutation; GST (N)
Sequence (P10721 544-976 V654A): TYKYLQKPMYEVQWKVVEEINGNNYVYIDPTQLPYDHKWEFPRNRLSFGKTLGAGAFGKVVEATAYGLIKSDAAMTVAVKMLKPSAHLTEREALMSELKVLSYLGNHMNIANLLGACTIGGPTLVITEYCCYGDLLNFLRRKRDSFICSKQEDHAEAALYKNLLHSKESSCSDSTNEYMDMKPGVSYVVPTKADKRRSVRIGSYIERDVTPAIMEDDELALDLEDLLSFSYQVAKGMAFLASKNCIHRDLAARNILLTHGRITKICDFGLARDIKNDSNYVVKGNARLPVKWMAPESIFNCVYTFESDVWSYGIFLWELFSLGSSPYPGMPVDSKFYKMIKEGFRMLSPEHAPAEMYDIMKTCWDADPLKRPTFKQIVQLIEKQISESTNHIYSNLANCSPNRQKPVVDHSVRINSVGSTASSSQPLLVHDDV
assay_info: c-Kit(V654A) assay (33P-ATP filter binding kinase assay)
condition_info: recombinant human c-Kit aa 544-end V654A, ATP 200 μM
readout: IC50 (nM)

For reference, reported IC50 for COc1ccn2c(-c3cc(NCc4ccc(-c5cn(C)cn5)cc4)ncn3)cnc2c1 stands at 55

[P] COCCOc1ccn2c(-c3cc(NCc4ccc(-n5ccnn5)cc4)ncn3)cnc2c1
[Q] Cn1cc(-c2ccc(CNc3cc(-c4cnc5cc(OCCC[N+]6([O-])CCCC6)ccn45)ncn3)cc2)cn1
[R] COc1ccn2c(-c3cc(NCc4ccc(-c5cnn(CC6CNC6)c5)cc4)ncn3)cnc2c1
Order the entries by their reported IC50, beginning at the minimum. Dear reader, please state the labels in the requested order. P, Q, R
(P: 6.3 nM, Q: 11 nM, R: 88 nM)

====

assay_info: Determination of Efflux-Ratio (ER) in Caco-2 cells
condition_info: human, Caco-2, pH 7.4
List of efflux ratio at 2 h, 1 μM values.

Form: compound = Cn1ncc(-c2ccc(CNc3cc(-c4cnc5cc(OCCC6CCNC6)ccn45)ncn3)cc2)n1 (stereo not shown) ; efflux ratio at 2 h, 1 μM = > 50

====

test_system: GIST430/654 cell line expressing mutated constitutively active cKIT receptor tyrosine kinase (Δ560-576 deletion and V654A point mutation) (Homo sapiens, UniProt P10721, DEL560-576/V654A)
Construct: endogenous in cells
Sequence (P10721 with tags, fused parts or gaps DEL560-576/V654A): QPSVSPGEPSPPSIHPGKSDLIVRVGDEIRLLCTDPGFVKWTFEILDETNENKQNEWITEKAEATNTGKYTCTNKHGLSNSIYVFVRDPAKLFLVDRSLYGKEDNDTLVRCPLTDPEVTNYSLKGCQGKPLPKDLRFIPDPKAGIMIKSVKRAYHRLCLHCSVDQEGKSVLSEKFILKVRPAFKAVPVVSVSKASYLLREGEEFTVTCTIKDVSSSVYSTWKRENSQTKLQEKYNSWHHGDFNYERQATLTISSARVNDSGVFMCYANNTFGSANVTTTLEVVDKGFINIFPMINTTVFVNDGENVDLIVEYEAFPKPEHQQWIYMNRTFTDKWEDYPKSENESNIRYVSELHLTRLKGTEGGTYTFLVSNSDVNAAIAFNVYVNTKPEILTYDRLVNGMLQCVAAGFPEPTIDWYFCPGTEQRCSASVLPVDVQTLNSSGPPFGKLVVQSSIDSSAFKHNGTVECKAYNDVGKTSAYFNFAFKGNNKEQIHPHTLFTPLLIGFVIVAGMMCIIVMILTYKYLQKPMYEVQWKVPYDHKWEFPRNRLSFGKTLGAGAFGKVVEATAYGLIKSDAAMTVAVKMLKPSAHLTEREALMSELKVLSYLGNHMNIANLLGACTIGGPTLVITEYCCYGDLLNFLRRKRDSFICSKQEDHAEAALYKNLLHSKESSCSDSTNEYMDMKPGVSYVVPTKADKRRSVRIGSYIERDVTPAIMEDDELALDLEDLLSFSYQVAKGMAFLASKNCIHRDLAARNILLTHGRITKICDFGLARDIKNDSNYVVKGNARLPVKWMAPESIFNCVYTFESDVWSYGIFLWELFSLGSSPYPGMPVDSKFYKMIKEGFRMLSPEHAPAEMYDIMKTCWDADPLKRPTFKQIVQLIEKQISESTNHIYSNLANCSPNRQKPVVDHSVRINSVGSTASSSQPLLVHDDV
assay_info: Cellular cKIT autophosphorylation (phospho-Y307-cKIT, Luminex bead assay) in GIST430/654 cells
condition_info: compounds 45 min, read-out: GIST 430/654 IC50
readout: IC50 (nM)

Completed entries (count: 2):
The recorded IC50 for Cn1ncc(-c2ccc(CNc3cc(-c4cnc5cc(OCCC6CCNC6)ccn45)ncn3)cc2)n1 (stereo not shown) is 84

Reported IC50 for Cn1ncc(-c2ccc(CNc3cc(-c4cnc5cc(OCCN6CCCC6)ccn45)ncn3)cc2)n1 was 98

[A] CN1CCN(CCOc2ccn3c(-c4cc(NCc5ccc(-c6cnn(C)c6)cc5)ncn4)cnc3c2)CCC1=O
[B] Cn1cc(-c2ccc(CNc3cc(-c4cnc5cc(OCCCN6CC7(COC7)C6)ccn45)ncn3)cc2)cn1
For the two items A and B , which reports the higher IC50 value? Give the chosen item's label as your response. A

====

test_system: GIST430/654 cell line expressing mutated constitutively active cKIT receptor tyrosine kinase (Δ560-576 deletion and V654A point mutation) (Homo sapiens, UniProt P10721, DEL560-576/V654A)
Construct: endogenous in cells
assay_info: Cellular cKIT autophosphorylation (phospho-Y307-cKIT, Luminex bead assay) in GIST430/654 cells
condition_info: compounds 45 min, read-out: GIST 430/654 IC50
pIC50: −log10 of the molar value.
readout: pIC50

Cn1cc(-c2ccc(CNc3cc(-c4cnc5cc(N6CCCC6)ccn45)ncn3)cc2)cn1 has a reported pIC50 of 7.47

Per the record, Cn1cc(-c2ccc(CNc3cc(-c4cnc5cc(OCCO)ccn45)ncn3)cc2)cn1 has pIC50 of 7.12

Looking up CO[C@H]1CCN(c2ccc(CNc3cc(-c4cnc5ccccn45)ncn3)cn2)C1 , I see its pIC50 listed as 6.52

# compound COc1ccn2c(-c3cc(NCc4ccc(-c5cn(C)cn5)cc4)ncn3)cnc2c1 ; its pIC50 = 6.19

# pIC50 of Cn1cc(-c2ccc(CNc3cc(-c4cnc5cc(OCCCS(C)(=O)=O)ccn45)ncn3)cc2)cn1 = 6.42

[A] CN1CCO[C@H](COc2ccn3c(-c4cc(NCc5ccc(-c6cnn(C)c6)cc5)ncn4)cnc3c2)C1
[B] Cn1cc(-c2ccc(CNc3cc(-c4cnc5cc(N6CCOCC6)ccn45)ncn3)cc2)cn1
Which value of pIC50 is greater, the one for A or the one for B ? Your choice should be expressed through its label. A
(A: 7.40, B: 7.11)

[A] Cn1cc(-c2ccc(CNc3cc(-c4cnc5cc(OCCCCN6CCC6)ccn45)ncn3)cc2)cn1
[B] Cn1cc(-c2ccc(CNc3cc(-c4cnc5cc(OCC(C)(C)N)ccn45)ncn3)cc2)cn1
[C] Cn1cc(-c2ccc(CNc3cc(-c4cnc5cc(OCCC6CCNC6)ccn45)ncn3)cc2)cn1 (stereo not shown)
Put the items in sequence by pIC50, from largest down. Please list the labels according to the requested order. A, B, C
(A: 7.24, B: 6.77, C: 6.32)
